Where do these numbers come from? They come from PubChem BioAssay (NCI).

Test system: PC-3 prostate
Experiment: NCI tumour cell line growth inhibition, 48 h
Below, each entry is listed with its recorded TGI.
reported metric: TGI

> print(dat)
                                   compound     result
1        Cc1ccc(N=Nc2ccc(O)c(CN(C)C)c2)cc1C   > 100 µM
2             FC(F)(Sc1ccccn1)c1nc2ccccc2o1   > 100 µM
3  Nc1c2c(=O)[nH]c(=O)c2c(N)c2c(=O)c3ccccc3c(=O)c12  > 36.6 µM
4  O=C1SS(=O)c2ccccc21 (stereo unspecified)   > 100 µM
5  CC(C)(C)c1cc(C2NCCO2)cc(C(C)(C)C)c1O (stereo unspecified)   > 100 µM
6  CC(C)CC1C(=O)NCCC(NC(=O)C(N)Cc2ccc(O)cc2)C(=O)NC(Cc2ccccc2)C(=O)NC(Cc2ccccc2)NC1=O (stereo unspecified)   > 100 µM
